system: norepinephrine; assay: concentration of norepinephrine in blood (plasma NE); format: in vivo, rat; conditions: 1 mg/kg; injected to the veins; after ten minutes; Means ± S.D; N=6; Control 3.55 ± 0.31

# compound, quantityUnit, Plasma NE
measured = [
    ("O=C(OC[C@H]1O[C@@H](OC(=O)c2cc(O)c(O)c(O)c2)[C@H](OC(=O)c2cc(O)c(O)c(O)c2)[C@@H](OC(=O)c2cc(O)c(O)c(O)c2)[C@@H]1OC(=O)c1cc(O)c(O)c(O)c1)c1cc(O)c(O)c(O)c1 [1,2,3,4,6-penta-O-galloyl-D-glucose, 1,2,3,4,6-penta-O-galloyl-β-D-glucose]", "pmol/mL", 1.94),
    ("O=C1O[C@H]2[C@@H]3OC(=O)c4cc(O)c(O)c(O)c4-c4c(cc(O)c(O)c4O)C(=O)OC[C@H]2O[C@@H](OC(=O)c2cc(O)c(O)c(O)c2)[C@@H]3OC(=O)c2cc(O)c(O)c3c2[C@@H]2C1=CC(=O)[C@](O)(O3)C2(O)O [Geraniin, geraniin]", "pmol/mL", 2.17),
    ("O=C(O[C@@H]1O[C@@H]2COC(=O)c3cc(O)c(O)c(O)c3-c3c(cc(O)c(O)c3O)C(=O)O[C@H]([C@H]1O)[C@@H]2O)c1cc(O)c(O)c(O)c1 [Corilagin, corilagin]", "pmol/mL", 1.55),
    ("O=C(OC[C@H]1OC(O)[C@H](O)[C@@H](O)[C@@H]1O)c1cc(O)c(O)c(O)c1 (stereo partly drawn) [6-O-galloyl-D-glucose]", "pmol/mL", 2.14),
]
